# system.tested: Beta-lactamase TEM (Escherichia coli, UniProt P62593)
# Sequence (P62593 whole entry): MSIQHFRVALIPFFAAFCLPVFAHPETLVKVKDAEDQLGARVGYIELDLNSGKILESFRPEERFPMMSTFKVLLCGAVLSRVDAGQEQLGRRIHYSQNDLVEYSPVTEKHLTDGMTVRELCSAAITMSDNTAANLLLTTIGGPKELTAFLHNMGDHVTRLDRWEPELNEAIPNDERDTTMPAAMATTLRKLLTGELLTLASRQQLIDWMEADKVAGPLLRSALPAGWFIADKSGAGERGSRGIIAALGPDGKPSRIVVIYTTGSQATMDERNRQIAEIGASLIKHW
# method.description: Inhibitory constant was determined against class A RTEM-1 Beta-lactamase from Escherichia coli
endpoint.label: Ki (µM)
One number for each entry, in µM.

OB(O)c1ccc(F)c(Cl)c1	152

Batch: Ki for all items listed.
1. Cc1ccc(CCB(O)O)cc1
2. OB(O)c1ccc(Cl)cc1Cl
3. OB(O)c1cccc(Br)c1
4. OB(O)CCc1ccc(C(F)(F)F)cc1
5. OB(O)c1ccc(Cl)c(Cl)c1
6. OB(O)CCc1cccc2ccccc12
7. OB(O)CCc1ccc2ccccc2c1

result:
[58, 94, 83, 43, 143, 101, 44]
